Target: baculovirus-expressed ALK (Homo sapiens)
Construct: host or cells: baculovirus expression system
Sequence (Q9UM73 19-1620): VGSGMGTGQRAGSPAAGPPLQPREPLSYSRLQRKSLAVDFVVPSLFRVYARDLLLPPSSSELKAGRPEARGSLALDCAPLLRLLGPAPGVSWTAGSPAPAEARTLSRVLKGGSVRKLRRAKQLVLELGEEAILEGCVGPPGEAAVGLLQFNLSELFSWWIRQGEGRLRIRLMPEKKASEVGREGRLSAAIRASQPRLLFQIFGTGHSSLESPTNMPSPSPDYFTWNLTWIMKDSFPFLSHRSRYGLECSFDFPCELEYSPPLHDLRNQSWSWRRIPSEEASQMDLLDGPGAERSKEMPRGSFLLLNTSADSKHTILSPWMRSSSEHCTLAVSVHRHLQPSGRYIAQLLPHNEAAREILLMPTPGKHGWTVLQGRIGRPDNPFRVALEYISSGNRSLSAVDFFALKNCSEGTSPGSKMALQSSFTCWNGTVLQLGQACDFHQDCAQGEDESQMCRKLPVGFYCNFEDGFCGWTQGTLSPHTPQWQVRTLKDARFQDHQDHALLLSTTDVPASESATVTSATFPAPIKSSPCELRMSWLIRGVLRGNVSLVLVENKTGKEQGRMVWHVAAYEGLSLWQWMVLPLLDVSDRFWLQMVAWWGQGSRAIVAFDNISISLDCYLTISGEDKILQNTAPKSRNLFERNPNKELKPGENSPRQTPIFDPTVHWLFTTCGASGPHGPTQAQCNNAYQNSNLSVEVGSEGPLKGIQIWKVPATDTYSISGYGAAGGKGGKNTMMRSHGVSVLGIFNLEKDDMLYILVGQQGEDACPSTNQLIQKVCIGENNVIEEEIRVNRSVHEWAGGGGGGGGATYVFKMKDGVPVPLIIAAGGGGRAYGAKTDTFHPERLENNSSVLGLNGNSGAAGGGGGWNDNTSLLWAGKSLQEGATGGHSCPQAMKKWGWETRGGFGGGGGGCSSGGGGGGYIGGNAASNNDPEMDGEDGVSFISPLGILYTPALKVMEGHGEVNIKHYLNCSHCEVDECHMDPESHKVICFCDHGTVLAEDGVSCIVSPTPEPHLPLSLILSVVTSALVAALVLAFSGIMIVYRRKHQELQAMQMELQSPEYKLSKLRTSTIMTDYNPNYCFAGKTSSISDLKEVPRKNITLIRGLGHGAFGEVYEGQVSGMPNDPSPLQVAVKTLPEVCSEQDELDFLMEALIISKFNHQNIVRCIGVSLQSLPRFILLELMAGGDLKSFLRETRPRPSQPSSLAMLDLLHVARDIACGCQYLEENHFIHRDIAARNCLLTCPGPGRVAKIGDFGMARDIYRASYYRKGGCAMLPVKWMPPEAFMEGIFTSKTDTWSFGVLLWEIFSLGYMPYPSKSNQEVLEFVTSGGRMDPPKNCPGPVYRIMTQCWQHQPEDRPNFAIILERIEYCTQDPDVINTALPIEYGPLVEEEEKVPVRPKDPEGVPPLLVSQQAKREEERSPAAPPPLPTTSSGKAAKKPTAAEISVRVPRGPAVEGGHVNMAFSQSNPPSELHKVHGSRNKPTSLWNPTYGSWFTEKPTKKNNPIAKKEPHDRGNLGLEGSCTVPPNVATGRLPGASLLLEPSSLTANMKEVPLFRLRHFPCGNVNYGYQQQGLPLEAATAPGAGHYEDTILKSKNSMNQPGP
Test: ALK Kinase Assay (ELISA-type, time-resolved fluorescence)
Assay type: biochemical
Details: ALK kinase inhibition, 1 μM ATP (Km level); read-out: ALK Activity
Procedure: Briefly, each 96-well plate was coated with 100 μL/well of 10 μg/mL substrate (phospholipase C-γ) in Tris-buffered saline (TBS). […] The reaction was initiated by adding enzyme (30 ng/ml ALK) and was allowed to proceed at 37° C. for 15 minutes. Detection of the phosphorylated product was performed by adding 100 μl/well of Eu-N1 labeled PT66 antibody (Perkin Elmer # AD0041). Data analysis was performed using ActivityBase (IDBS, Guilford, UK). […]
pIC50: −log10 of the molar value.
QUANTITY KIND: pIC50

I would be grateful if you could share the reported pIC50 for COCCN1C2CCC1c1cc(Nc3ncc(Cl)c(N[C@@H]4CCCC[C@H]4NS(C)(=O)=O)n3)ccc1C2 (stereo partly shown) .
> 7.00

Also CNC(=O)c1ccccc1Nc1nc(Nc2ccc3c(c2)C2CN(S(C)(=O)=O)CC3O2)ncc1Cl (single isomer, unassigned) [Example 183] , if possible.
> 7.00

Also COc1cc2c(cc1Nc1ncc(Cl)c(N[C@@H]3CCCC[C@H]3NS(C)(=O)=O)n1)CCNC(=O)C2 , if possible.
> 7.00

Also CNC(=O)c1ccccc1Nc1nc(Nc2ccc3c(c2)C2CN(S(C)(=O)=O)CC3O2)ncc1Cl (stereo not shown) [Example 64] , if possible.
6.00 to 7.00

Also CNC(=O)c1cccc(F)c1Nc1nc(Nc2ccc3c(c2)C2CCC(C3)N2CCOC)ncc1Cl (stereo not shown) , if possible.
> 7.00

Also CNC(=O)c1ccccc1Nc1nc(Nc2ccc3c(c2)CCNCC3)ncc1Cl , if possible.
> 7.00

Also CNC(=O)c1ccccc1Nc1nc(Nc2ccc3c(c2)C2CCC3CN(CC#N)C2)ncc1Cl (stereo not shown) , if possible.
> 7.00
